Target: Glucocorticoid receptor (Homo sapiens) (UniProt P04150)
Sequence (P04150 whole entry, looked up): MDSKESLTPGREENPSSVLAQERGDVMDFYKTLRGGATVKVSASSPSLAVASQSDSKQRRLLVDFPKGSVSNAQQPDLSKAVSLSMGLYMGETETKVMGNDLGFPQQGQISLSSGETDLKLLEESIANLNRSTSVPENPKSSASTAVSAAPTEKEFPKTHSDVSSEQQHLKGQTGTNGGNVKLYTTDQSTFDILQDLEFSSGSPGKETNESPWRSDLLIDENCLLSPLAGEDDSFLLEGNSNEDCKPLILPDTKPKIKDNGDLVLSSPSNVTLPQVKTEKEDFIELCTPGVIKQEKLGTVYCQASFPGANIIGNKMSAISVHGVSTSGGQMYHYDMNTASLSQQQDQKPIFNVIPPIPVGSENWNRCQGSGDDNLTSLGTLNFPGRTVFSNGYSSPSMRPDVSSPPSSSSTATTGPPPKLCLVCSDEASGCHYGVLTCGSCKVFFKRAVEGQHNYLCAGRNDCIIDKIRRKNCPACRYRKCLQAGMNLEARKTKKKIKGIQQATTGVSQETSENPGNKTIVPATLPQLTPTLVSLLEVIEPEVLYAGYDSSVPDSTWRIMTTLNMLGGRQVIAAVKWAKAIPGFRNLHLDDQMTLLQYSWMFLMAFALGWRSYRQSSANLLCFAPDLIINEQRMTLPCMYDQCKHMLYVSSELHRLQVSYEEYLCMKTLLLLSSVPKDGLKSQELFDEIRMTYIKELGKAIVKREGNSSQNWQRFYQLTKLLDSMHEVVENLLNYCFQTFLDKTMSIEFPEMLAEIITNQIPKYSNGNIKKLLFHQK
Test: qHTS assay to identify small molecule antagonists of the glucocorticoid receptor (GR) signaling pathway (AID 720692)
Details: GR-bla HeLa, beta-lactamase FRET ratio, dexamethasone-stimulated, 18 h; series mostly up to 58.5 µM
Results filed as inconclusive are left out. Activity calls are given as the source filed them. Calls follow the shape of the dose curve; as a rule, active = well fitted inhibition curve with a large enough effect in the signal ratio in the repeat runs (not every such curve was filed as active); inconclusive = weak or mixed curves, or effect the other way; inactive = no such curve, though single readings can be large or run the other way; the % refers to the signal ratio.
Outcomes: active, inactive

{"columns": ["compound", "answer label"],
 "data": [
  ["C[C@@H]1[C@H](O)[C@@H](C)/C=C/C=C\\C=C\\C=C\\C=C\\C=C\\C=C\\[C@H](O[C@@H]2O[C@H](C)[C@@H](O)[C@H](N)[C@@H]2O)C[C@@H]2O[C@](O)(C[C@@H](O)C[C@@H](O)[C@H](O)CC[C@@H](O)C[C@@H](O)CC(=O)O[C@H]1C)C[C@H](O)[C@H]2C(=O)O (stereo in doubt)", "active"],
  ["Cc1ccc(S(=O)(=O)NC(=O)NC2CCCCC2)cc1", "inactive"],
  ["COc1ccc(C2C(=O)c3ccccc3C2=O)cc1", "inactive"],
  ["Cc1cccc(C)c1NC(=O)c1cc(S(N)(=O)=O)c(Cl)cc1O", "inactive"],
  ["CC(CCc1ccc(O)cc1)NCCc1ccc(O)c(O)c1 (stereo not drawn)", "inactive"],
  ["COC(OC)OC", "inactive"],
  ["CCC(=O)OCc1ccc(OC)cc1", "inactive"],
  ["CCCCCCCC/C=C\\CCCCCCCC(=O)OCCO", "active"],
  ["CC(C)(C)NCC(O)COc1cccc2c1C[C@H](O)[C@H](O)C2 (stereo partly drawn)", "inactive"],
  ["C[C@H](CS)C(=O)N1CCC[C@H]1C(=O)O", "inactive"],
  ["N[C@@H](Cc1cc(I)c(O)c(I)c1)C(=O)O", "inactive"],
  ["Cc1ccccc1S(N)(=O)=O", "inactive"],
  ["O=C1NC(=O)c2cccc3cccc1c23", "inactive"]
]}
